All values here come from patent US8222260B2.

Readings of pIC50 for the listed compounds
- System Name: recombinant AtCKX2 (Arabidopsis thaliana)
- Sequence (Q9FUJ3 23-501): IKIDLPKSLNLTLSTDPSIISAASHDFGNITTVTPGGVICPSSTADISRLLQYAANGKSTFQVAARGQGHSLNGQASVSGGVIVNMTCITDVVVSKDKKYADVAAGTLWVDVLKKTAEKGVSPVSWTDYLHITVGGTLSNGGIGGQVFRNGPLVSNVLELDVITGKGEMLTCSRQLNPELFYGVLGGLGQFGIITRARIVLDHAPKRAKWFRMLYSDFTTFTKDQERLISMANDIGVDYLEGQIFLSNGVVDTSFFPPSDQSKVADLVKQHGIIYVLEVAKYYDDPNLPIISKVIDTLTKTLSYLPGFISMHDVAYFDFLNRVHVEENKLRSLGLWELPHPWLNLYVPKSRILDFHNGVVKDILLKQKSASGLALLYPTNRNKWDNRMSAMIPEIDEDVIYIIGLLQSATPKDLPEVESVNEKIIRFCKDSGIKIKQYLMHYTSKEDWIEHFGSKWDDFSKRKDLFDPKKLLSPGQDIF
- Method: Inhibition of cytokinin oxidase/dehydrogenase activity (PMS/MTT microtitre plate assay)
- Type: biochemical
- Run Parameters: 30 μM iP as substrate, pH 7.4, 37° C.; means of three replicates; read-out: IC50, inhibition of recombinant AtCKX2
Reminder that pIC50 is minus the log10 of a molar concentration.

Sc1nc(Nc2cccc(Cl)c2)c2nc[nH]c2n1 = 4.55

GET pIC50 where system = recombinant AtCKX2 (Arabidopsis thaliana) and item = COc1cccc(Nc2nc(C)nc3nc[nH]c23)c1 5.03

Specify the recorded pIC50 for COc1cccc(Nc2nc(S)nc3[nH]cnc23)c1 , system: recombinant AtCKX2 (Arabidopsis thaliana). 4.55

Find pIC50 for COc1cccc(Nc2nc(Cl)nc3nc[nH]c23)c1 on recombinant AtCKX2 (Arabidopsis thaliana) and write it down. 6.10

Report the value of pIC50 obtained on recombinant AtCKX2 (Arabidopsis thaliana) for COc1cccc(Nc2nc(N)nc3nc[nH]c23)c1 . 4.61

Recall the reported pIC50 of Clc1ccc(Nc2nc(Cl)nc3[nH]cnc23)cc1 when tested on recombinant AtCKX2 (Arabidopsis thaliana). 4.62

Fill in: pIC50 on recombinant AtCKX2 (Arabidopsis thaliana), entry Oc1cccc(Nc2nc(Cl)nc3nc[nH]c23)c1 [Compound 9, 2-Chloro-6-(3-hydroxyanilino)purine] 5.46

Report pIC50 on recombinant AtCKX2 (Arabidopsis thaliana) for this entry: Clc1nc(Nc2ccccc2)c2[nH]cnc2n1 4.65
